Below, each entry is listed with its recorded log10(IC50).
test_target: human P2Y12 receptor (Homo sapiens, UniProt Q9H244)
Sequence (Q9H244 whole entry): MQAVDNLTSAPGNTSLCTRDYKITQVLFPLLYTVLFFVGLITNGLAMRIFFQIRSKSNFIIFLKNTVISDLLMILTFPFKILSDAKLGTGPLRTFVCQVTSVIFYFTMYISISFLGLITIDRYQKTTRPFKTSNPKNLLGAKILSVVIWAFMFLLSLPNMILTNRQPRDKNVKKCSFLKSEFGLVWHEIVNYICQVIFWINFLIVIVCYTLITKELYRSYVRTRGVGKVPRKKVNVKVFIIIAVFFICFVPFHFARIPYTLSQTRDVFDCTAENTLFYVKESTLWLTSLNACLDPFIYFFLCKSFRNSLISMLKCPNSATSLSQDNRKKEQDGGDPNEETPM
test_summary: Human P2Y12 recombinant cell membrane binding assay with 33P 2MeS-ADP
conditions: competition against 33P 2MeS-ADP, membranes of CHO cells with recombinant human P2Y12 receptor
assay_readout: log10(IC50) (log10 of the value in nM)

> print(dat)
                                   molecule  number
1  CCOC(=O)N1CCN(C(=O)[C@H](CCNS(=O)(=O)C(F)(F)F)NC(=O)c2cc(OCC(=O)N3CCC[C@H]3C(=O)NC3CCC3)n(-c3ccccc3)n2)CC1 [Example 188]    1.00
2  CCOC(=O)N1CCN(C(=O)[C@H](CCC(=O)OC(C)C)NC(=O)c2cc(OCC(=O)N3CCC[C@H]3C(=O)NC3CCC3)n(-c3ccccc3)n2)CC1 [Example 137]    2.17
3  CCOC(=O)N1CCN(C(=O)[C@H](CCC(=O)O)NC(=O)c2cc(OCC(=O)N3CCC[C@H]3C(=O)NCC(F)(F)F)n(-c3ccc(F)c(F)c3)n2)CC1 [Example 85]    2.19
4  CCCCOC(=O)N1CCN(C(=O)[C@H](CC2CC2)NC(=O)c2cc(OCC(=O)N3CCC[C@H]3C(=O)NC3CCC3)n(-c3ccccc3)n2)CC1 [Example 234]    1.93
5  CCOC(=O)N1CCN(C(=O)[C@H](CCC(=O)O)NC(=O)c2cc(OCC(=O)N3CCC[C@H]3C(=O)NCCSC)n(-c3ccccc3)n2)CC1 [Example 3]    2.26
6  CCOCCOC(=O)CC[C@H](NC(=O)c1cc(OCC(=O)N2CCC[C@H]2C(=O)NC2CCC2)n(-c2ccccc2)n1)C(=O)N1CCN(C(=O)OCC)CC1 [Example 198]    2.06

###

test_target: human P2Y12 receptor (Homo sapiens)
test_summary: Human P2Y12 recombinant cell membrane binding assay with 33P 2MeS-ADP
conditions: competition against 33P 2MeS-ADP, membranes of CHO cells with recombinant human P2Y12 receptor
// boundary case: IC50 equal to 60 nM maps to FALSE; strictly smaller maps to TRUE

compound	group
CCCOC(=O)N1CCN(C(=O)C(NC(=O)c2cc(OCC(=O)N3CCC[C@H]3C(=O)NC3CCC3)n(-c3ccccc3)n2)C(C)F)CC1 (stereo partly shown) [Example 175]	FALSE
O=C(O)CC[C@H](NC(=O)c1cc(OCC(=O)N2CCC[C@H]2C(=O)NCC2CC2)n(-c2ccccc2)n1)C(=O)N1CCN(C(=O)OCc2ccccc2)CC1 [Example 161]	TRUE
CCOC(=O)N1CCN(C(=O)[C@H](CCC(=O)O)NC(=O)c2cc(OCC(=O)N3CC[C@H]3C(=O)NC3CCC3)n(-c3ccccc3)n2)CC1 [Example 41]	FALSE
CCOC(=O)N1CCN(C(=O)[C@H](CCC(=O)O)NC(=O)c2cc(OCC(=O)N3CCC[C@H]3C(=O)NCCF)n(-c3ccccc3)n2)[C@H](C)C1 [Example 151]	FALSE
CCOC(=O)N1CCN(C(=O)[C@H](CCC(=O)O)NC(=O)c2cc(OCC(=O)N3CCC[C@H]3C(=O)NCC3CC3)n(-c3ccc(F)c(F)c3)n2)CC1 [Example 84]	FALSE
CCOC(=O)N1CCN(C(=O)[C@H](CCC(=O)O)NC(=O)c2cc(OCC(=O)N3CCC[C@H]3c3nc(C)c[nH]3)n(-c3ccccc3)n2)CC1 [Example 172]	FALSE
CCOC(=O)N1CCN(C(=O)[C@H](CCC(=O)O)NC(=O)c2cc(OCC(=O)N3CC(F)(F)C[C@H]3C(=O)NC3CCC3)n(-c3ccccc3)n2)CC1 [Example 164]	FALSE
O=C(O)CC[C@H](NC(=O)c1cc(OCC(=O)N2CCC[C@H]2C(=O)NC2CCC2)n(-c2ccccc2)n1)C(=O)N1CCC(C(=O)c2ccccc2)CC1 [Example 106]	FALSE
CCOC(=O)N1CCN(C(=O)[C@H](CCNC(C)=O)NC(=O)c2cc(OCC(=O)N3CCC[C@H]3C(=O)NC3CCC3)n(-c3ccccc3)n2)CC1 [Example 92]	FALSE
CCOC(=O)N1CCN(C(=O)[C@H](CCC(=O)O)NC(=O)c2cc(OCC(=O)N3CCC[C@H]3C(=O)NC3CC3(F)F)n(-c3ccccc3)n2)CC1 (stereo partly shown) [Example 21]	TRUE
CCCCOC(=O)CC[C@H](NC(=O)c1cc(OCC(=O)N2CCC[C@H]2C(=O)NC2CCC2)n(-c2ccccc2)n1)C(=O)N1CCN(C(=O)OCC)CC1 [Example 134]	TRUE
O=C(N[C@@H](CCCCOCc1ccccc1)C(=O)N1CCN(C(=O)OC2CCC2)CC1)c1cc(OCC(=O)N2CCC[C@H]2C(=O)NC2CCC2)n(-c2ccccc2)n1 [Example 197]	FALSE
CCOC(=O)N1CCN(C(=O)[C@H](CC(=O)O)NC(=O)c2cc(OCC(=O)N3CCC[C@H]3C(=O)NCCF)n(-c3cccc(F)c3)n2)CC1 [Example 78]	FALSE
CCOC(=O)N1CCN(C(=O)[C@H](CCC(=O)OC)NC(=O)c2cc(OCC(=O)N3CCC[C@H]3C(=O)NC3CCC3)n(-c3ccccc3)n2)CC1 [Example 136]	TRUE
CCCCOC(=O)N1CCN(C(=O)[C@H](CCC(=O)O)NC(=O)c2cc(OCC(=O)N3CCC[C@H]3C(=O)NCC3CC3)n(-c3ccccc3)n2)CC1 [Example 120]	TRUE
CCOC(=O)N1CCN(C(=O)[C@H](CNC(C)=O)NC(=O)c2cc(OCC(=O)N3CCC[C@H]3C(=O)NC3CCC3)n(-c3ccccc3)n2)CC1 [Example 87]	FALSE
CCOC(=O)N1CCN(C(=O)[C@H](CCC(=O)O)NC(=O)c2cc(OCC(=O)N3CCC[C@H]3C(=O)NC3CCC3)n(-c3cccc(F)c3)n2)CC1 [Example 73]	TRUE
